The values you see were collected from patent EP0877020A1.

Tested on: RBL-2H3 cells
Experiment: Repression of liberation of mediators (serotonin, histamine, arachidonic acid) from RBL-2H3 cells
Assay type: cell-based, rat
Conditions: Rattus norvegicus, RBL-2H3, due to the antigenic stimulus; read-out: IC50 value, liberation of arachidonic acid from the RBL-2H3 cells
Property label: IC50 (µM)
Give the quantity in µM, number only.

[ask] Could you share which IC50 value was measured for Cc1ccc2c(=O)c3ccccc3n(CCCN)c2c1C.O=C(O)C(=O)O [Example 3, oxalate] ?
[reply] 12
